# assay.target: hPDE10A (Homo sapiens, UniProt Q9Y233)
# Sequence (Q9Y233 290-1055 limits assumed): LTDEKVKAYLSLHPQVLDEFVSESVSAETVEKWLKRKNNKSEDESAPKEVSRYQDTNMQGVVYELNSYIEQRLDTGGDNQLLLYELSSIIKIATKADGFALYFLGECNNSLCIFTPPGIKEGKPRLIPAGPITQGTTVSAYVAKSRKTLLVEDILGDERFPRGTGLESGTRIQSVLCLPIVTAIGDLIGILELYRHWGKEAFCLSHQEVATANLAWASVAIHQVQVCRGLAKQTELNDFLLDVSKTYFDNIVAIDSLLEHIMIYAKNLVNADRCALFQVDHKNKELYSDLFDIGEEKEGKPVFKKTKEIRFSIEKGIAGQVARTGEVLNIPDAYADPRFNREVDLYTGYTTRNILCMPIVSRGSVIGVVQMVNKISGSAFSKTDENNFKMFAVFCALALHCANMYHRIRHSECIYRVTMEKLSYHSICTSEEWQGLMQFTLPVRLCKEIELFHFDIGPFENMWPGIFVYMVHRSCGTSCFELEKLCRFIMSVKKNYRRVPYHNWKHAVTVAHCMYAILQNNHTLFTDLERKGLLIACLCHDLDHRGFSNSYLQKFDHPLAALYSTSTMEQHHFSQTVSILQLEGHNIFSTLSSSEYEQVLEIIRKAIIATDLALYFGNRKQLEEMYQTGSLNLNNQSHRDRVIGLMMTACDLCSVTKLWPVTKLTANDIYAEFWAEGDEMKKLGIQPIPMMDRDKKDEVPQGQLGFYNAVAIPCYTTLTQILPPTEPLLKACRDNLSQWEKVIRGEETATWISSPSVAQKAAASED
pIC50: −log10 of the molar value.
Assign y whenever pIC50 does not fall below 5; assign n whenever it does.

# example entries with known answers
| compound | assay.target | category |
| --- | --- | --- |
| Nc1nccn2c([C@H]3C[C@@H](C(F)(F)F)CCC3(F)F)nnc12 (racemic) [Example 172] | hPDE10A (Homo sapiens, UniProt Q9Y233) | n |
| Cn1nc(C2CCCCC2)c2ncnc(N)c21 [Example 187] | hPDE10A (Homo sapiens, UniProt Q9Y233) | y |
| Nc1nccn2c(C3CCC4CC4C3)nnc12 (single isomer, unassigned) [Example 218] | hPDE10A (Homo sapiens, UniProt Q9Y233) | y |
| Nc1nccn2c(C3CCC4CC4C3)nnc12 (single isomer, unassigned) [Example 219] | hPDE10A (Homo sapiens, UniProt Q9Y233) | y |
| Nc1nccn2c([C@@H]3C[C@@H]4[C@H](C3)C4(F)F)nnc12 [Example 160] | hPDE10A (Homo sapiens, UniProt Q9Y233) | n |

Input line: State whether the measured pIC50 reaches 5, counting equality as reaching it, for Nc1ncnc2c1ncn2C1CCCCC1 [Example 182]
Output line: y

Input line: State whether the measured pIC50 reaches 5, counting equality as reaching it, for CC1(C)CCCN(c2nnc3c(N)nccn23)C1 [Example 26]
Output line: n

Input line: State whether the measured pIC50 reaches 5, counting equality as reaching it, for CC1CCN(c2nnc3c(N)nccn23)CC1C (single isomer, unassigned) [Example 230]
Output line: n

###

Would you kindly list inhibition at 0.1 µM for each of these compounds?
# assay.target: hPDE8B (Homo sapiens, UniProt O95263)
# Construct: purchased SB Drug Discovery
# Sequence (O95263 whole entry): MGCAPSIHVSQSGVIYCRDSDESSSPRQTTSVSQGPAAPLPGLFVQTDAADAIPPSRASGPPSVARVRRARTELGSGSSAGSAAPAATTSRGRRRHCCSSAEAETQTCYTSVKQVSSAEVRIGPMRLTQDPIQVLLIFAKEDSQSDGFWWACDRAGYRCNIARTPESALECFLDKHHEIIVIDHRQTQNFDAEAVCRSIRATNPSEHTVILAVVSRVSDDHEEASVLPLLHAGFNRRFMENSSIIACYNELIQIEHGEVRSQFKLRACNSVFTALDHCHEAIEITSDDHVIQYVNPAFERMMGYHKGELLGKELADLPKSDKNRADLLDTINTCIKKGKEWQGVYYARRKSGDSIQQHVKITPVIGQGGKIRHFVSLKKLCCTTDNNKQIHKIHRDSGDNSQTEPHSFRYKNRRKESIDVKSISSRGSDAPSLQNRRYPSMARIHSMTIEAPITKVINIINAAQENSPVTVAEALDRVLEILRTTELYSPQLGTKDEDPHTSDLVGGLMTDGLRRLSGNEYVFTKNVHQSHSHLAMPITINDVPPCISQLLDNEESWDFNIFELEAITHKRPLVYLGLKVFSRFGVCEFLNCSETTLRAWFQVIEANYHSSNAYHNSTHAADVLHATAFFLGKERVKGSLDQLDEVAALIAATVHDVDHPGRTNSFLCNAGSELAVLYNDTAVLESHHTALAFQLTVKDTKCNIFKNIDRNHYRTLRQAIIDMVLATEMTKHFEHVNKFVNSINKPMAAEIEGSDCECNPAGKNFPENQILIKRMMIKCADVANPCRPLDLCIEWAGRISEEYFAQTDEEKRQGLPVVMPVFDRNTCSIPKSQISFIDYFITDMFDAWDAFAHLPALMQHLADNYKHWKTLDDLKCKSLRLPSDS
# assay.method.text: PDE8 inhibition assay (IC50), Experimental Example 3
# Format: biochemical
# condition.details: at 0.1 μmol/L; read-out: inhibition rate (%) at prescribed concentration, PDE8
Entry format: amount then unit.

// known answers, use as guide
| compound | inhibition at 0.1 µM |
| --- | --- |
| CC1(C)CCC(n2nnc3c(N)ncnc32)CC1 [Example 101] | 69% |
| CC(C)(C)OC(=O)N1CCC[C@H](c2nnc3c(N)nccn23)C1 [Example 167] | 98% |
| Nc1ncnc2c1nnn2[C@H]1CCCN(c2ccccc2)C1 [Example 137] | 58% |

Input line: Which inhibition at 0.1 µM is reported for this compound? Nc1nccn2c(C3CCC4CC4C3)nnc12 (single isomer, unassigned) [Example 221]
Output line: 69%

###

Human PDE7B (hPDE7B) (Homo sapiens, UniProt Q9NP56) data, read-out pIC50
Sequence (Q9NP56 whole entry): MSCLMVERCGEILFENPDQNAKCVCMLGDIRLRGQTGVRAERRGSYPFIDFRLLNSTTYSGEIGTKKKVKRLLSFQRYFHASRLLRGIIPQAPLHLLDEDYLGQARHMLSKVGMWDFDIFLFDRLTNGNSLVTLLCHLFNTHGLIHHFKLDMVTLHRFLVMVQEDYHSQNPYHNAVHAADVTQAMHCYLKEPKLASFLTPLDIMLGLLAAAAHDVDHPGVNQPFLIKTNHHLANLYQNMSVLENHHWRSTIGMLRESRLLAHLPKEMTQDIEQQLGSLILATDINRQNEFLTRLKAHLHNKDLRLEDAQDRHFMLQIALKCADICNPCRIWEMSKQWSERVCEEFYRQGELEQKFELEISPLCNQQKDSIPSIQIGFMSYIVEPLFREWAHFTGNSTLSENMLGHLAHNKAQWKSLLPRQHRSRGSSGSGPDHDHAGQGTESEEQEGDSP
One number for each entry, as −log10 of the molar value.

// known answers, use as guide
| compound | pIC50 |
| --- | --- |
| CC1(C)CC(c2nnc3c(N)nccn23)CC(F)(F)C1 (racemic) | 7.52 |
| CC1CCN(c2nnc3c(N)nccn23)CC1 | 7.05 |
| C[C@@H]1CCCCN1c1nnc2c(N)nccn12 | 7.40 |

Parameters: items (list). Returns: pIC50 for each item.
1. CCC1CCN(c2nnc3c(N)nccn23)CC1
2. CCC1CCCC(n2nnc3c(N)ncnc32)C1 (stereo not shown)
3. CC1CCC(F)(F)CC1c1nnc2c(N)nccn12 (stereo not shown) [Example 153]
4. Nc1ncnc2c1nnn2[C@H]1CC[C@H](C(F)(F)F)CC1

Output line:
1: 6.28; 2: 7.10; 3: 7.15; 4: 6.35

###

# assay.target: hPDE10A (Homo sapiens, UniProt Q9Y233)
# assay.method.text: PDE10 inhibition assay (IC50), Experimental Example 3
# Assay type: biochemical
# condition.details: at 10 μmol/L; read-out: inhibition rate (%) at prescribed concentration, PDE10
measured.metric: inhibition at 10 µM (%)
Numbers only, in %.

// known answers, use as guide
| molecule | measured.metric | readout.number |
| --- | --- | --- |
| Nc1ncnc2c1cnn2C1CCCCC1 | inhibition at 10 µM | 49 |
| Nc1ncnc2c1nnn2C1CCC(F)(F)CC1 | inhibition at 10 µM | 25 |

Parameters: items (list). Returns: inhibition at 10 µM for each item.
1. Nc1ncnc2c1nnn2C1CCCCC1
2. CC1(C)CCCC(n2nnc3c(N)ncnc32)C1 (racemic)

Output line:
1: 27; 2: 43

###

hPDE10A (Homo sapiens) data, read-out log10 IC50
The figures below represent log10 of IC50, where IC50 is stated in µM.

// known answers, use as guide
| molecule | measured.metric | readout.number |
| --- | --- | --- |
| CC1CC(C)CN(c2nnc3c(N)nccn23)C1 (single isomer, unassigned) | log10 IC50 | 0.72 |
| CC1CCC(C(F)(F)F)CC1c1nnc2c(N)nccn12 (single isomer, unassigned) | log10 IC50 | 0.11 |
| CC1CCCC(c2nnc3c(N)ncnn23)C1 (single isomer, unassigned) [Example 240] | log10 IC50 | 0.49 |

Parameters: items (list). Returns: log10 IC50 for each item.
1. CC1(C)CCC(n2nnc3c(N)ncnc32)CC1
2. CC1(C)CC(c2nnc3c(N)nccn23)CC(F)(F)C1 (single isomer, unassigned)

Output line:
[0.77, 1.12]

Parameters: items (list). Returns: log10 IC50 for each item.
1. Nc1nccn2c(C3CCCC(C(F)(F)F)C3)nnc12 (single isomer, unassigned)
2. Cc1cnc(N)c2nnc(N3CCCC(C)(C)C3)n12
3. Nc1nccn2c(N3C4CCCC3CC4)nnc12

Output line:
1. 1.25
2. 0.90
3. 1.50

###

Human PDE7B (hPDE7B) (Homo sapiens, UniProt Q9NP56) data, read-out pIC50
One number for each entry, as −log10 of the molar value.

Parameters: items (list). Returns: pIC50 for each item.
1. CC1CCCC(c2nnc3c(N)ncnn23)C1 (single isomer, unassigned) [Example 241]
2. CCOc1nc(N)c2nnn(C3CCCCC3)c2n1
3. COC(=O)N1CCCCC1c1nnc2c(N)nccn12 (racemic)
4. Nc1ncnc2c1nnn2[C@H]1CCC[C@@H](C(F)(F)F)C1 (racemic)
5. CC1CCCCC1n1nnc2c(N)ncnc21 (racemic) [Example 95]

Output line:
1. 6.64
2. 7.70
3. 6.21
4. 7.52
5. 7.40

Parameters: items (list). Returns: pIC50 for each item.
1. Nc1nccn2c(N3CCCC4(CC4)C3)nnc12
2. Nc1ncnc2c1nnn2[C@H]1CCC[C@H](C(F)(F)F)C1 (relative stereo)

Output line:
[7.10, 6.44]

Input line: Which pIC50 is reported for this compound? CC1CC(c2nnc3c(N)nccn23)CC(F)(F)C1 (single isomer, unassigned) [Example 216]
Output line: 7.30

###

# assay.target: hPDE4D (Homo sapiens, UniProt Q08499)
# Construct: purchased SB Drug Discovery
# Sequence (Q08499 whole entry): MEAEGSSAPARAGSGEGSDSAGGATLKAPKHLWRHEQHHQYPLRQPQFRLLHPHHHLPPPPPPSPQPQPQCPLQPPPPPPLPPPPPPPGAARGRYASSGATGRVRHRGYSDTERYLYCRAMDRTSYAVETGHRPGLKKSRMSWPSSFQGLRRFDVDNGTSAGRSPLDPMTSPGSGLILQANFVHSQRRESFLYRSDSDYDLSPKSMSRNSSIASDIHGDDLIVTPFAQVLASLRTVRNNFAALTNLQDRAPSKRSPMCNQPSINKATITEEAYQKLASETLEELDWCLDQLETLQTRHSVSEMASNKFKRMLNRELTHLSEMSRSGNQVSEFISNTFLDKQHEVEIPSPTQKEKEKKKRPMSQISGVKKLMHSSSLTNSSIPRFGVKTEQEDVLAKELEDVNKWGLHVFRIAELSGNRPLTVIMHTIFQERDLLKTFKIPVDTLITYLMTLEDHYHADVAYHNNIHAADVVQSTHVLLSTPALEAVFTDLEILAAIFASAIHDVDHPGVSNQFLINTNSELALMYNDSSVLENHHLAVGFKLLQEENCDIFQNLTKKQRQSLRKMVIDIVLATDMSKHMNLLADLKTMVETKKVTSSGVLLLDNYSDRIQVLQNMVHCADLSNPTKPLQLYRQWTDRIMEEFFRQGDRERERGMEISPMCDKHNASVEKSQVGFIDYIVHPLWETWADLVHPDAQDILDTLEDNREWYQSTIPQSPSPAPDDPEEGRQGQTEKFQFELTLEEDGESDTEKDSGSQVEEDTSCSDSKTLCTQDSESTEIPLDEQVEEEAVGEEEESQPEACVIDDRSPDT
# assay.method.text: PDE4 inhibition assay (IC50), Experimental Example 3
# Assay type: biochemical
# condition.details: at 1 μmol/L; read-out: inhibition rate (%) at prescribed concentration, PDE4
measured.metric: inhibition at 1 µM (%)
Give bare numbers, in %.

// known answers, use as guide
| molecule | inhibition at 1 µM, % |
| --- | --- |
| CC1CCCCC1c1nnc2c(N)ncnn12 (single isomer, unassigned) [Example 238] | 63 |
| CC1CCC(C(F)(F)F)CC1c1nnc2c(N)ncnn12 (racemic) [Example 83] | 53 |
| CC1(C)CCCC(c2nnc3c(N)ncnn23)C1 (single isomer, unassigned) [Example 242] | 53 |
| CC1CCCC(c2nnc3c(N)ncnn23)C1 (single isomer, unassigned) [Example 240] | 86 |

Here is another molecule to look at.
Input line: Which inhibition at 1 µM is reported for this molecule? CC1(C)CCCN(c2nnc3c(N)ncc(C#N)n23)C1 [Example 2]
Output line: 61

###

hPDE8B (Homo sapiens, UniProt O95263) data, read-out pKi
Numbers only, as −log10 of the molar value.

// known answers, use as guide
| smiles.data | pKi |
| --- | --- |
| Nc1nccn2c(C3CCCCC3)nnc12 | 5.85 |
| Nc1ncnc2c1nnn2C1CCCCC1 | 6.11 |
| C[C@@H]1CCC[C@H](c2nnc3c(N)nccn23)C1 | 5.85 |

Here is another compound to look at.
Input line: Which pKi is reported for this compound? "Cc1nc(N)c2nnn(C3CCCCC3)c2n1"
Output line: 7.07

###

# assay.target: UniProtKB Q08499
measured.metric: Ki (µM)
Answers are plain numbers, in µM.

Input line: Which Ki is reported for this compound? "C[C@@H]1CCC[C@H](c2nnc3c(N)nccn23)C1"
Output line: 1.2

###

# assay.target: bovine PDE6 (Bos taurus, UniProt P11541+P23439)
# Construct: PDE6 was purified and isolated from bovine retina (bovine PDE6)
# Sequence (P11541 2-856 limits assumed): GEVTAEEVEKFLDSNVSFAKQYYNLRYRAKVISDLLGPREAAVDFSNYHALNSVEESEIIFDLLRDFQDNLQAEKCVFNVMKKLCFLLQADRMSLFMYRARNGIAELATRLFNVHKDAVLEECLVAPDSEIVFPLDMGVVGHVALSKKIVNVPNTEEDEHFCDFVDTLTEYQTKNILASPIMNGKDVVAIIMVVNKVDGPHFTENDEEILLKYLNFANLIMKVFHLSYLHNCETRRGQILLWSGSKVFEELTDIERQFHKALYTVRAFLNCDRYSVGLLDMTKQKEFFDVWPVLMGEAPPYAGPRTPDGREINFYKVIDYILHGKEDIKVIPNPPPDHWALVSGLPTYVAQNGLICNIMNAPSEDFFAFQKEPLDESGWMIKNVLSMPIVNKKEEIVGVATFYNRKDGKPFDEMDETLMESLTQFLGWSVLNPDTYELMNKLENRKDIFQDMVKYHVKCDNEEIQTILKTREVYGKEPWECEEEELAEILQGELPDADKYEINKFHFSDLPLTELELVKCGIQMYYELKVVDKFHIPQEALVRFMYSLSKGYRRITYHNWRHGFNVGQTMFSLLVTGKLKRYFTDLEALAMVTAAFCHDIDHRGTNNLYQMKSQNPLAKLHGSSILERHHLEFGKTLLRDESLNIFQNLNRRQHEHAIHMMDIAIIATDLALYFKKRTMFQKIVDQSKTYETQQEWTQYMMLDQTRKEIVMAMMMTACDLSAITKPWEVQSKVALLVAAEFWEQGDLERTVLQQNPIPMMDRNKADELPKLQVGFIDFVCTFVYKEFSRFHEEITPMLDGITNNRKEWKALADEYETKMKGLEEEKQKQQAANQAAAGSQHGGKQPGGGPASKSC
# Sequence (P23439 2-850 limits assumed): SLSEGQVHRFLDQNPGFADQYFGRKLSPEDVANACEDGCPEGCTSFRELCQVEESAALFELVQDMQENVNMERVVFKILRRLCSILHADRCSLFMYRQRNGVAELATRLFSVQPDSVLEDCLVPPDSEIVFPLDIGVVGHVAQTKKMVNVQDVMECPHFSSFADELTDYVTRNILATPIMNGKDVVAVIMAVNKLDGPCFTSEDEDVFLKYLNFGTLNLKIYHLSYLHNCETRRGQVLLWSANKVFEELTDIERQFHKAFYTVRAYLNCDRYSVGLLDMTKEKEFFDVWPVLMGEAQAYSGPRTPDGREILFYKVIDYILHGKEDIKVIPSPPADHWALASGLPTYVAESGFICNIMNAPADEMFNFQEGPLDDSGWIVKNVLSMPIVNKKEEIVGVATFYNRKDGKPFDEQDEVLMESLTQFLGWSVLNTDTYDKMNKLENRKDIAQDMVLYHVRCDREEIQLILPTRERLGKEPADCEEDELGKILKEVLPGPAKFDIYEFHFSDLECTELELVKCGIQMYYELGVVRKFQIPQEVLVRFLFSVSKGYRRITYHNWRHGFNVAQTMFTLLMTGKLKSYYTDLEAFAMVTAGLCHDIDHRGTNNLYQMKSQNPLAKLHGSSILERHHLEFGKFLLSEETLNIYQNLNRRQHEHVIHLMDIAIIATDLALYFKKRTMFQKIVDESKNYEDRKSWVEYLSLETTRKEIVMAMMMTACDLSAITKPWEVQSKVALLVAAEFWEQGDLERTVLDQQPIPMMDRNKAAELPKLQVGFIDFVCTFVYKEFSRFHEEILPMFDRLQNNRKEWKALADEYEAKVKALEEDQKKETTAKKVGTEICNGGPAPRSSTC
# assay.method.text: PDE7 selectivity test (Ki value), Experimental Example 2: bovine PDE6
# condition.details: Ki from IC50 by Cheng-Prusoff, read-out: PDE inhibition constant Ki, PDE6
pKi: −log10 of the molar value.
Would you kindly list pKi for each of these compounds?

// known answers, use as guide
| compound | pKi |
| --- | --- |
| C[C@@H]1CCC[C@H](c2nnc3c(N)nccn23)C1 [Example 204] | < 4.31 |
| CC1CCCCC1n1nnc2c(N)ncnc21 (single isomer, unassigned) [Example 191] | < 4.31 |
| Nc1nccn2c(C3CCCCC3)nnc12 [Example 141] | < 5.31 |
| Nc1ncnc2c1nnn2C1CCCCC1 [Example 3] | < 4.31 |

Here is another compound to look at.
Input line: What is its pKi for bovine PDE6 (Bos taurus, UniProt P11541+P23439)? Entry: Cc1nc(N)c2nnn(C3CCCCC3)c2n1 [Example 4]
Output line: < 5.31

meta.source: patent US20190185479A1
